Biological target: T1, HMGE D83E (Pantoea stewartii subsp. stewartii, UniProt P54293 1-249, D83E)
T1 sequence: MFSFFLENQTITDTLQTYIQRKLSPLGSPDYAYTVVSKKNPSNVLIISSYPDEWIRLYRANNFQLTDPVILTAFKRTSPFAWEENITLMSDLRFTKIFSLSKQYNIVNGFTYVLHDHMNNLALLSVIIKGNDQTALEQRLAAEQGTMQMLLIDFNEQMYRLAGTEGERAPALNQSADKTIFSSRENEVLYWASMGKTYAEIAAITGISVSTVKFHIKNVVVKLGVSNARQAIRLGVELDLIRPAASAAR
Assay: fluorescence anisotropy; no AHL; 150 mM NaCl, 6 mM HEPES, 17.5 mM Tris, 3% glycerol, pH 7.6, 25 C, 20 min; 3 nM T-esabox, 0-100 nM protein
Conditions: protein: recombinant; tags: N-terminal His6-MBP-TEV-Gly5; chain copies: 2; label: 5' TAMRA on strand 1; blunt
pKd: −log10 of the molar value.
Quantity Measured: pKd

# Binder, Quantity Measured, Reported Value
rows = [
    ("T-esabox (PesaR28 TAMRA/PesaR28R) (dsDNA) DNA 1: TCTTGCCTGTACTATAGTGCAGGTTAAG DNA 2: CTTAACCTGCACTATAGTACAGGCAAGA", "pKd", 8.40),
]

Values from paper PMC4169570
